Measure: melting point

Check out these entries, answers already filled in.
1. Nc1c(Cl)c(C(=O)O)nc(-c2cncs2)c1Cl: 175 to 177 °C
2. CCOC(=O)c1nc(-c2ccc(C)cc2)cc(N)c1Cl: 129 to 130 °C
3. COC(=O)c1nc(-c2ccc(C)c(C)c2)cc(N)c1Cl: 154 to 156 °C
4. Nc1cc(-c2ccc(F)cc2F)nc(C(=O)O)c1Cl: 206 °C (dec.)
5. COC(=O)c1nc(-c2cc3ccccc3s2)cc(N)c1Cl: 177 to 178 °C
6. Nc1cc(-c2nccs2)nc(C(=O)O)c1Cl: 184 to 185 °C

Data request: So what's the measured melting point for this one? COC(=O)c1nc(-c2ccccn2)cc(N)c1Cl
Data returned: 142 to 145 °C

Data request: // same read-out, input: CC(=O)c1ccc(-c2cc(N)c(Cl)c(C(=O)O)n2)cc1
Data returned: 177 to 178 °C

Data request: // same read-out, input: Nc1cc(-c2ccccn2)nc(C(=O)O)c1Cl
Data returned: 185 °C (dec.)

Data request: // same read-out, input: COC(=O)c1nc(-c2ccc(O)nc2)cc(N)c1Cl
Data returned: 251 to 252 °C

Data request: // same read-out, input: COC(=O)c1nc(-c2ccc3c(c2)CCO3)c(F)c(N)c1Cl
Data returned: 120 °C

Data request: // same read-out, input: Nc1cc(-c2cccc(C(F)(F)F)c2)nc(C(=O)O)c1Cl
Data returned: 175 to 176 °C

Data request: // same read-out, input: COC(=O)c1nc(-c2cc(Cl)ccc2Cl)cc(NC(C)=O)c1Cl
Data returned: 143 °C

Data request: // same read-out, input: COc1cc(Cl)ccc1-c1cc(N)c(Cl)c(C(=O)O)n1
Data returned: 182 to 183 °C

Data request: // same read-out, input: Nc1c(F)c(-c2ccc3c(c2)CCO3)nc(C(=O)O)c1Cl
Data returned: 171 °C

Data request: // same read-out, input: Nc1cc(-c2ccc(Cl)cc2)nc(C(=O)O)c1Cl
Data returned: 165 °C

Data request: // same read-out, input: COC(=O)c1nc(-c2ccc(Cl)cc2F)cc(N)c1Cl
Data returned: 107 to 109 °C

Data request: // same read-out, input: COC(=O)c1nc(-c2cc(Cl)c(C)cc2F)cc(N)c1Cl
Data returned: 108 to 110 °C

Data request: // same read-out, input: COC(=O)c1nc(-c2ccc(C(F)(F)F)cc2)c(F)c(N)c1F
Data returned: 177 to 178 °C
